- Tested on: Vibrio cholerae
- protocolDescription: Minimum inhibitory concentration against Vibrio cholerae
- Format: functional
endpointName: MIC

Reference set (5 entries):
Problem: Recall the recorded MIC for NC1CC(n2cc(I)c(=O)[nH]c2=O)OC1CO (configuration not stated) with Vibrio cholerae and state it.
Solution: > 200 µM

Problem: What about this compound? NC1CC(n2cc(Br)c(=O)[nH]c2=O)OC1CO (configuration not stated)
Solution: > 200 µM

Problem: What about this compound? NC1CC(n2cc(F)c(=O)[nH]c2=O)OC1CO (configuration not stated)
Solution: > 200 µM

Problem: What about this compound? Cc1cn([C@H]2C[C@H](N)[C@@H](CO)O2)c(=O)[nH]c1=O
Solution: > 200 µM

Problem: What about this compound? NC1CC(n2cc(Cl)c(=O)[nH]c2=O)OC1CO (configuration not stated)
Solution: > 200 µM

Others:
Problem: Recall the recorded MIC for Nc1ccn([C@H]2C[C@H](N)[C@@H](CO)O2)c(=O)n1 with Vibrio cholerae and state it.
Solution: > 200 µM

Problem: What about this compound? N[C@H]1C[C@H](n2ccc(=O)[nH]c2=O)O[C@@H]1CO
Solution: > 200 µM
